Origin of the recorded values: patent US12552800B2

molecular target: PD brain-derived a-syn aggregates (Homo sapiens); construct: from tissue; host or cells: human PD donor brain, sarkosyl-insoluble 100,000 x g pellet; assay: Micro-radiobinding competition assay against Example-1 [^3H-1] (Table 8); format: binding; conditions: 100 nM non-radiolabelled example compound vs Example-1 [^3H-1] ligand; human PD brain-derived a-syn aggregates
The compounds listed here are annotated with their Competition at 100 nM (%).
Expressed in %, but write only the number.

Solved entries (count: 5):
compound	Competition at 100 nM (%)
Cn1cc(N2Cc3nn(-c4ccc(N5CC[C@@H](F)C5)nc4)cc3C2=O)cn1 [Example 4]	58
O=C1c2cn(-c3ccc(N4CCCC4)nc3)nc2CN1c1ccncc1F	75
O=C1c2cn(-c3ccc(N4CCOCC4)nc3)nc2CN1c1nccnc1F	78
COc1cccc(N2Cc3nn(-c4ccc(N5CC[C@H](F)C5)nc4)cc3C2=O)n1	60
O=C1c2cn(-c3ccc(N4CC[C@@H](F)C4)nc3)nc2CN1c1cncnc1	42

What Competition at 100 nM (%) value was documented for this compound, N#Cc1ccc(N2Cc3nn(-c4ccc(N5CC[C@H](F)C5)nc4)cc3C2=O)cn1 ? 91

What Competition at 100 nM (%) value was documented for this compound, CC(C)Oc1ccc(-n2cc3c(n2)CN(c2cncc(F)n2)C3=O)cn1 ? 19

What Competition at 100 nM (%) value was documented for this compound, O=C1c2cn(-c3ccc(N4CC[C@@H](F)C4)nc3)nc2CN1c1cc(O)ccn1 ? 72

###

The compounds listed here are annotated with their Competition at 100 nM (%).
molecular target: PD brain-derived a-syn aggregates (Homo sapiens); construct: from tissue; host or cells: human PD donor brain, sarkosyl-insoluble 100,000 x g pellet; assay: Micro-radiobinding competition assay against Example-1 [^3H-1] (Table 8); type: binding; conditions: 100 nM non-radiolabelled example compound vs Example-1 [^3H-1] ligand; human PD brain-derived a-syn aggregates
Expressed in %, but write only the number.

Solved entries (count: 3):
compound	target	Competition at 100 nM (%)
O=C1c2cn(-c3ccc(N4CCCC4)nc3)nc2CN1c1ccnc(F)c1 [Example 41]	PD brain-derived a-syn aggregates (Homo sapiens)	61
COc1cccc(N2Cc3nn(-c4ccc(N5CC[C@H](F)C5)nc4)cc3C2=O)c1 [Example 36]	PD brain-derived a-syn aggregates (Homo sapiens)	74
O=C1c2cn(-c3ccc(N4CC[C@H](F)C4)nc3)nc2CN1c1ccnc(O)c1 [Example 172]	PD brain-derived a-syn aggregates (Homo sapiens)	44

What Competition at 100 nM (%) value was documented for this compound, Cl.O=C1c2cn(-c3ccc(N4CC[C@H](F)C4)nc3)nc2CN1c1cnccn1 [Example 17] ? 68

What Competition at 100 nM (%) value was documented for this compound, COc1ccc(N2Cc3nn(-c4ccc(N5CC[C@H](F)C5)nc4)cc3C2=O)nc1 [Example 28] ? 89

What Competition at 100 nM (%) value was documented for this compound, O=C1c2cn(-c3ccc(C4CCCC4)nc3)nc2CN1c1cncc(F)n1 [Example 161] ? 42

What Competition at 100 nM (%) value was documented for this compound, Cc1cc(N2Cc3nn(-c4ccc(N5CC[C@H](F)C5)nc4)cc3C2=O)ccn1 [Example 104] ? 86

What Competition at 100 nM (%) value was documented for this compound, O=C1c2cn(-c3ccc(N4CCCC4)nc3)nc2CN1c1cccc(F)n1 [Example 140] ? 67

###

target: PD brain-derived a-syn aggregates (Homo sapiens, UniProt P37840); construct: from tissue; host or cells: human PD donor brain, sarkosyl-insoluble 100,000 x g pellet; test: Micro-radiobinding competition assay against Example-1 [^3H-1] (Table 8); type: binding; details: 100 nM non-radiolabelled example compound vs Example-1 [^3H-1] ligand; human PD brain-derived a-syn aggregates
readout kind: Competition at 100 nM (%)
Expressed in %, but write only the number.

Solved entries (count: 7):
O=C1c2cn(-c3ccc(N4CCCC4)nc3)nc2CN1c1cccnc1F 43
Cn1ccc(N2Cc3nn(-c4ccc(N5CC[C@H](F)C5)nc4)cc3C2=O)n1 61
N#Cc1ccnc(N2Cc3nn(-c4ccc(N5CC[C@H](F)C5)nc4)cc3C2=O)c1 75
O=C1c2cn(-c3ccc(N4CC[C@H](F)C4)nc3)nc2CN1c1ncccn1 23
CC(C)c1ccc(-n2cc3c(n2)CN(c2cncc(F)n2)C3=O)cn1 31
O=C1c2cn(-c3ccc(N4CC[C@H](F)C4)cc3)nc2CN1c1cccnc1 67
O=C1c2cn(-c3ccc(N4CC[C@@H](F)C4)nc3)nc2CN1c1nccs1 74

Shifting focus to the compound that follows.
What Competition at 100 nM (%) value was documented for this compound, Cc1ccc(N2Cc3nn(-c4ccc(N5CC[C@@H](F)C5)nc4)cc3C2=O)nc1 ? 75

###

molecular target: PD brain-derived a-syn aggregates (Homo sapiens, UniProt P37840); construct: from tissue; host or cells: human PD donor brain, sarkosyl-insoluble 100,000 x g pellet; test: Micro-radiobinding competition assay against Example-1 [^3H-1] (Table 8); format: binding; conditions: 1 μM non-radiolabelled example compound vs Example-1 [^3H-1] ligand; human PD brain-derived a-syn aggregates
The molecules listed here are annotated with their Competition at 1 μM (%).
Expressed in %, but write only the number.

Solved entries (count: 3):
O=C1c2cn(-c3ccc(N4CCC[C@@H](F)C4)nc3)nc2CN1c1cccnc1 77
O=C1c2cn(-c3ccc(N4CC[C@@H](F)C4)nc3)nc2CN1c1ccccc1 100
O=C1c2cn(-c3ccc(N4CC[C@H](F)C4)nc3)nc2CN1c1cccnc1 89

Shifting focus to the molecule that follows.
What Competition at 1 μM (%) value was documented for this molecule, Cc1c2c(nn1-c1ccc(N3CC[C@H](F)C3)nc1)CN(c1ccncc1)C2=O ? 47

###

The compounds listed here are annotated with their Competition at 100 nM (%).
biological target: PD brain-derived a-syn aggregates (Homo sapiens, UniProt P37840); construct: from tissue; host or cells: human PD donor brain, sarkosyl-insoluble 100,000 x g pellet; assay: Micro-radiobinding competition assay against Example-1 [^3H-1] (Table 8); format: binding; conditions: 100 nM non-radiolabelled example compound vs Example-1 [^3H-1] ligand; human PD brain-derived a-syn aggregates
Expressed in %, but write only the number.

Solved entries (count: 4):
Cc1cncc(N2Cc3nn(-c4ccc(N5CC[C@H](F)C5)nc4)cc3C2=O)c1 54
Cn1cc(N2Cc3nn(-c4ccc(N5CCC[C@H](F)C5)nc4)cc3C2=O)cn1 40
COc1cncc(N2Cc3nn(-c4ccc(N5CC[C@H](F)C5)nc4)cc3C2=O)c1 38
O=C1c2cn(-c3ccc(N4CC[C@@H](F)C4)nc3)nc2CN1c1cccnn1 39

What Competition at 100 nM (%) value was documented for this compound, Cc1ccnc(N2Cc3nn(-c4ccc(N5CC[C@@H](F)C5)nc4)cc3C2=O)c1 ? 51

What Competition at 100 nM (%) value was documented for this compound, O=C1c2cn(-c3ccc(N4CCCC4)nc3)nc2CN1c1ncccc1F ? 41

What Competition at 100 nM (%) value was documented for this compound, O=C1c2cn(-c3ccc(N4CC[C@H](F)C4)nc3)nc2CN1c1ccnnc1 ? 23

What Competition at 100 nM (%) value was documented for this compound, O=C1c2cn(-c3ccc(N4CC[C@H](F)C4)nc3)nc2CN1c1ncccc1O ? 73

###

biological target: PD brain-derived a-syn aggregates (Homo sapiens); construct: from tissue; host or cells: human PD donor brain, sarkosyl-insoluble 100,000 x g pellet; experiment: Micro-radiobinding competition assay against Example-1 [^3H-1] (Table 8); type: binding; conditions: 100 nM non-radiolabelled example compound vs Example-1 [^3H-1] ligand; human PD brain-derived a-syn aggregates
The molecules listed here are annotated with their Competition at 100 nM (%).
Expressed in %, but write only the number.

What Competition at 100 nM (%) value was documented for this molecule, O=C1c2cn(-c3ccc(N4CCC[C@@H](F)C4)nc3)nc2CN1c1cccnc1 [Example 40] ? 50

What Competition at 100 nM (%) value was documented for this molecule, Cn1cc(N2Cc3nn(-c4ccc(N5CC[C@@H](F)C5)nc4)cc3C2=O)cn1 [Example 26] ? 87

What Competition at 100 nM (%) value was documented for this molecule, COc1cccc(N2Cc3nn(-c4ccc(N5CC[C@@H](F)C5)nc4)cc3C2=O)n1 [Example 74] ? 22

What Competition at 100 nM (%) value was documented for this molecule, O=C1c2cn(-c3ccc(N4CC[C@@H](F)C4)nc3)nc2CN1c1ccc(F)cc1 [Example 63] ? 79

What Competition at 100 nM (%) value was documented for this molecule, Cc1cccc(N2Cc3nn(-c4ccc(N5CC[C@H](F)C5)nc4)cc3C2=O)c1 [Example 38] ? 70

What Competition at 100 nM (%) value was documented for this molecule, Cc1ccc(N2Cc3nn(-c4ccc(N5CC[C@H](F)C5)nc4)cc3C2=O)cn1 [Example 11] ? 50

What Competition at 100 nM (%) value was documented for this molecule, O=C1c2cn(-c3ccc(N4CC[C@H](F)C4)nc3)nc2CN1c1cccnc1 [Example 3] ? 45

What Competition at 100 nM (%) value was documented for this molecule, O=C1c2cn(-c3ccc(N4CCCC4)nc3)nc2CN1c1cc(F)ccn1 [Example 100] ? 78

What Competition at 100 nM (%) value was documented for this molecule, O=C1c2cn(-c3ccc(N4CC[C@@H](F)C4)nc3)nc2CN1c1ccnnc1 [Example 25] ? 64

What Competition at 100 nM (%) value was documented for this molecule, Cc1c2c(nn1-c1ccc(N3CC[C@H](F)C3)nc1)CN(c1ccccn1)C2=O [Example 73] ? 33

What Competition at 100 nM (%) value was documented for this molecule, O=C1c2cn(-c3ccc(N4CC[C@@H](F)C4)nc3)nc2CN1c1ncccc1O [Example 167] ? 68

What Competition at 100 nM (%) value was documented for this molecule, Cn1cc(-n2cc3c(n2)CN(c2cccc(F)n2)C3=O)cn1 [Example 150] ? 37

What Competition at 100 nM (%) value was documented for this molecule, O=C1c2cn(-c3ccc(N4CC[C@@H](F)C4)nc3)nc2CN1c1cccc(O)n1 [Example 164] ? 44

What Competition at 100 nM (%) value was documented for this molecule, Cn1cnc(N2Cc3nn(-c4ccc(N5CC[C@@H](F)C5)nc4)cc3C2=O)c1 [Example 133] ? 59

What Competition at 100 nM (%) value was documented for this molecule, O=C1c2cn(-c3ccc(N4CC[C@@H](F)C4)nc3)nc2CN1c1cnsc1 [Example 131] ? 72

What Competition at 100 nM (%) value was documented for this molecule, O=C1c2cn(-c3ccc(N4CCC[C@H](F)C4)nc3)nc2CN1c1cccnc1 [Example 43] ? 47

What Competition at 100 nM (%) value was documented for this molecule, O=C1c2cn(-c3ccc(N4CC[C@H](F)C4)nc3)nc2CN1c1ccccc1O [Example 176] ? 13
